Each recorded value in this set is attributed to the supplement of paper PMC11417369.

The entries below are paired with their reported gcPBM binding intensity (ln).
Tested on: PfHDP1 homeodomain (GST-tagged)
Assay: gcPBM binding intensity (ln(normalized median fluorescence intensity)); higher = stronger DNA binding
Whole data set: some 25,000 sequences, median “ln(normalized median fluorescence intensity)” near 6.7, cut for the highest 2% near 10. Only a selection was taken, and the highest values are over-represented in it overall.
property label: gcPBM binding intensity (ln)

[[record]]
biosequence = "TTTGATGGTACACGTACACACCTTGCAAATATTTTT [CACACA_site4645]"
target_entity = "PfHDP1 homeodomain (GST-tagged)"
property_label = "gcPBM binding intensity (ln)"
quantitative_readout = 7.13

[[record]]
biosequence = "CAAGCCCTTCTGCTTACACACAGTAATTATTGTGCA [CACACA_site7399]"
target_entity = "PfHDP1 homeodomain (GST-tagged)"
property_label = "gcPBM binding intensity (ln)"
quantitative_readout = 6.34

[[record]]
biosequence = "AGCACGCACAGACACACACACATATTTATATTTATA [CACACA_site6291]"
target_entity = "PfHDP1 homeodomain (GST-tagged)"
property_label = "gcPBM binding intensity (ln)"
quantitative_readout = 7.62

[[record]]
biosequence = "ATATAACGAATAATTACACACTATAAAAAAAGATCT [CACACA_site2862]"
target_entity = "PfHDP1 homeodomain (GST-tagged)"
property_label = "gcPBM binding intensity (ln)"
quantitative_readout = 6.63

